- PROCEDURE_TEXT: Prodrug stability in simulated gastric fluid
- DETAILS: 37° C., pH 1.1, HPLC
Measured % prodrug remaining following incubation for 1 h in simulated gastric fluid pH 1.1 values are reported for all entries that follow.
QUANTITY_NAME: % prodrug remaining following incubation for 1 h in simulated gastric fluid pH 1.1 (%)

{"COMPOUND": "O=C1CCN=C(NC(=O)Cc2c(Cl)cccc2Cl)N1 [Compound 34, Guanfacine-β-Alanine Cyclic Adduct]", "UNITS_TEXT": "%", "VALUE_REPORTED": 51}
{"COMPOUND": "CC(C)[C@H](NC(=O)CC(C)(C)CC(=O)NC(=N)NC(=O)Cc1c(Cl)cccc1Cl)C(=O)O [Compound 33]", "UNITS_TEXT": "%", "VALUE_REPORTED": 79}
{"COMPOUND": "N=C(NC(=O)Cc1c(Cl)cccc1Cl)NC(=O)OC[C@H](NC(=O)CCN)C(=O)O [Compound 64]", "UNITS_TEXT": "%", "VALUE_REPORTED": 88}
{"COMPOUND": "CC(C)[C@H](N)C(=O)N[C@H](C(=O)O)[C@@H](C)OC(=O)NC(=N)NC(=O)Cc1c(Cl)cccc1Cl [Compound 20]", "UNITS_TEXT": "%", "VALUE_REPORTED": 79}
{"COMPOUND": "N=C(NC(=O)CC[C@H](NC(=O)[C@H](N)Cc1ccc(O)cc1)C(=O)O)NC(=O)Cc1c(Cl)cccc1Cl [Compound 45]", "UNITS_TEXT": "%", "VALUE_REPORTED": 74}
{"COMPOUND": "CC(C)[C@H](N)C(=O)NCCOC(=O)NC(=N)NC(=O)Cc1c(Cl)cccc1Cl [Compound 26]", "UNITS_TEXT": "%", "VALUE_REPORTED": 97}
{"COMPOUND": "C[C@H]1N=C(NC(=O)Cc2c(Cl)cccc2Cl)NC1=O [Compound 51, Guanfacine-(R)-Alanine Cyclic Adduct]", "UNITS_TEXT": "%", "VALUE_REPORTED": 80}
{"COMPOUND": "N=C(NC(=O)Cc1c(Cl)cccc1Cl)NC(=O)OCCNC(=O)CN [Compound 49]", "UNITS_TEXT": "%", "VALUE_REPORTED": 87}
{"COMPOUND": "CC(C)[C@H](NC(=O)COC(=O)NC(=N)NC(=O)Cc1c(Cl)cccc1Cl)C(=O)O [Compound 29]", "UNITS_TEXT": "%", "VALUE_REPORTED": 80}
{"COMPOUND": "CNCC(=O)NCCOC(=O)NC(=N)NC(=O)Cc1c(Cl)cccc1Cl [Compound 71]", "UNITS_TEXT": "%", "VALUE_REPORTED": 91}
{"COMPOUND": "N=C(NC(=O)Cc1c(Cl)cccc1Cl)NC(=O)OCC[C@H](N)C(=O)O [Compound 65, Guafacine (S)-Homoserine Carbamate]", "UNITS_TEXT": "%", "VALUE_REPORTED": 90}
{"COMPOUND": "CC(C)[C@@H](N)C(=O)NCCOC(=O)NC(=N)NC(=O)Cc1c(Cl)cccc1Cl [Compound 27]", "UNITS_TEXT": "%", "VALUE_REPORTED": 78}
{"COMPOUND": "CC(C)[C@@H](NC(=O)COC(=O)NC(=N)NC(=O)Cc1c(Cl)cccc1Cl)C(=O)O [Compound 30]", "UNITS_TEXT": "%", "VALUE_REPORTED": 77}
{"COMPOUND": "N=C(NC(=O)CCNC(=O)[C@@H]1CCC(=O)N1)NC(=O)Cc1c(Cl)cccc1Cl [Compound 10]", "UNITS_TEXT": "%", "VALUE_REPORTED": 82}
{"COMPOUND": "CC(C)[C@@H](N)C(=O)N[C@@H](C(=O)NC(=N)NC(=O)Cc1c(Cl)cccc1Cl)C(C)C [Compound 54, Guanfacine ((R)-Valine-(R)-Valine) Amide]", "UNITS_TEXT": "%", "VALUE_REPORTED": 73}
